Target: Serotonin 2 (5-HT2) receptor (Rattus norvegicus, UniProt P30994+P08909+P14842)
Experiment: Inhibitory concentration against radioligand [3H]ketanserin binding to 5-hydroxytryptamine 2 receptor in rat
Hi there, I'd appreciate the recorded IC50 for every entry that follows.
Field format: number, assumed nM, no unit text.

So what's the measured IC50 for this one? CCCN(CCC)CCc1cc(Cl)ccc1OCCc1ccccc1.O=C(O)C(=O)O
196

Proceed to CCCN(CCC)CCc1cccc(OC)c1OCCc1ccccc1.Cl
8800

###

Biological target: Glutamate receptor ionotropic, NMDA 1 (Rattus norvegicus, UniProt P35439)
Test: Inhibitory concentration against radioligand [3H]PCP binding to PCP site of N-methyl-D-aspartate glutamate receptor in rat
pIC50: −log10 of the molar value.
Hi there, I'd appreciate the recorded pIC50 for every entry that follows.

What value of pIC50 on Glutamate receptor ionotropic, NMDA 1 (Rattus norvegicus, UniProt P35439) does CCCN(CCC)CCc1cccc(OC)c1OCCc1ccccc1.Cl have?
< 5.00

Proceed to CCCN(CCC)CCc1ccc(OC)c(OCCc2ccccc2)c1.Cl
< 6.00

Proceed to CCCN(CCC)CCCc1ccc(OC)c(OCCc2ccccc2)c1.Cl
< 6.00

Proceed to CCCN(CCC)CCc1cc(Cl)ccc1OCCc1ccccc1.O=C(O)C(=O)O
< 6.00
